Test system: HIV-1(IIIB)
RUN_DESCRIPTION: Inhibition of HIV-1 induced syncytium formation in CEM cells, wild type
Assay type: cell-based
CONDITION_DETAILS: Human immunodeficiency virus 1, IIIB, CCRF-CEM, 96 h, Table 2B, WT = HIV-1(IIIB), day 4, averages of 2 to 3 independent experiments, read-out: Antiviral Activity of Comparative Compounds EC50, WT
Exercise: for every item that follows, state its recorded EC50.
Only the number, expressed in µg/mL, is required.

Exam item: Param request: EC50 | system HIV-1(IIIB) | item `Cc1occc1C(=S)Nc1ccc(Cl)c(OCC(C)(C)C)c1`
Marked response: 0.15

Exam item: Print HIV-1(IIIB) EC50 for `C#CCOc1cc(NC(=S)c2ccoc2C)ccc1Cl` .
Marked response: 0.06

Exam item: State, for HIV-1(IIIB), measured EC50 of the compound listed here: `CSc1sccc1C(=O)Nc1ccc(Cl)c(C=NOC(C)(C)C)c1`
Marked response: 0.18

Exam item: Please report the measured EC50 for `Cc1occc1C(=S)Nc1ccc(Cl)c(OC2CCCCC2)c1` tested on HIV-1(IIIB).
Marked response: 0.033

Exam item: Provide the reported EC50 (system: HIV-1(IIIB)) for `C=CCOc1cc(NC(=S)c2sccc2C)ccc1Cl`
Marked response: 0.035

Exam item: State the measured EC50 (HIV-1(IIIB)) of `CCC(CC)COC(=O)c1cc(NC(=S)c2ccoc2C)ccc1Cl`
Marked response: 0.007

Exam item: // fetch EC50; item: `Cc1occc1C(=S)Nc1ccc(Cl)c(OC(=O)OC(C)C)c1` ; system: HIV-1(IIIB)
Marked response: 0.37

Exam item: Identify measured EC50 obtained with HIV-1(IIIB) for `C=C(C)COC(=O)c1cc(NC(=S)c2ccoc2C)ccc1Cl` .
Marked response: 0.006

Exam item: Check HIV-1(IIIB) data and give EC50 for `O=C(OC1CCCCC1)c1cc(NC(=S)c2ccccc2Cl)ccc1Cl` .
Marked response: 0.5

Exam item: Tell me its EC50 on HIV-1(IIIB): `Cc1sccc1C(=O)Nc1ccc(Cl)c(C(=O)OC(C)C)c1`
Marked response: 0.09

Exam item: Send back HIV-1(IIIB) EC50 of `C#CCON=Cc1cc(NC(=S)c2ccoc2C)ccc1Cl` only.
Marked response: 0.025

Exam item: GET EC50 | system: HIV-1(IIIB) | item: `CC1=C(C(=O)Nc2ccc(Cl)c(OCCC(C)C)c2)SCCO1`
Marked response: 0.28

Exam item: Provide the reported EC50 (system: HIV-1(IIIB)) for `Cc1ccccc1C(=S)Nc1ccc(Cl)c(C(=O)OC2CCCCC2)c1`
Marked response: 0.049

Exam item: Answer briefly: EC50 recorded on HIV-1(IIIB) for `CON=Cc1cc(NC(=S)c2ccoc2C)ccc1OC`
Marked response: 0.007

Exam item: Retrieve EC50 on HIV-1(IIIB); query `Cc1occc1C(=S)Nc1ccc(Cl)c(COC(C)(C)C)c1`
Marked response: 0.03

Exam item: Param request: EC50 | system HIV-1(IIIB) | item `Cc1occc1C(=S)Nc1ccc(Cl)c(C(=O)OC2CCCCC2)c1`
Marked response: 0.004

Exam item: Report measured EC50 on HIV-1(IIIB); entry: `CC=CCSc1cc(NC(=O)c2ccoc2C)ccc1Cl`
Marked response: 0.16

Exam item: Specify EC50 for `Cc1sccc1C(=S)Nc1ccc(Cl)c(OCC(C)(C)C)c1` , system HIV-1(IIIB).
Marked response: 0.14

Exam item: Please tell me the measured EC50 for `Cc1occc1C(=S)Nc1ccc(Cl)c(C(=O)OC2CCCC2)c1` ; system: HIV-1(IIIB).
Marked response: 0.005

Exam item: Give reported EC50 for `CC=CCSc1cc(NC(=O)c2ccsc2C)ccc1Cl` (HIV-1(IIIB))
Marked response: 0.08

Exam item: Param request: EC50 | system HIV-1(IIIB) | item `Cc1sccc1C(=S)Nc1ccc(Cl)c(OCC(=O)OC(C)(C)C)c1`
Marked response: 0.067

Exam item: Report the value of EC50 obtained on HIV-1(IIIB) for `CCC(CC)OC(=O)c1cc(NC(=S)c2ccccc2N)ccc1Cl` .
Marked response: 0.75

Exam item: Output reported EC50 of the compound `CC(C)=CCOc1cc(NC(=O)c2ccsc2C)ccc1Cl` on HIV-1(IIIB).
Marked response: 0.01

Exam item: // output EC50; input `COc1ccccc1C(=S)Nc1ccc(Cl)c(C(=O)OC2CCCC2)c1` ; system HIV-1(IIIB)
Marked response: 0.04

Exam item: Jot down EC50 (HIV-1(IIIB)) of `CCC(CC)OC(=O)c1cc(NC(=O)c2ccccc2N)ccc1Cl` .
Marked response: 0.6

Exam item: Consider the compound `C=CCOc1cc(NC(=S)c2sccc2C)ccc1OC` tested on HIV-1(IIIB); state its EC50.
Marked response: 0.045

Exam item: Write down the reported EC50 (system: HIV-1(IIIB)) of `CC=CCSc1cc(NC(=S)c2ccoc2C)ccc1Cl`
Marked response: 0.0041

Exam item: State measured EC50 of the compound `CC=CCOc1cc(NC(=S)c2ccoc2C)ccc1Cl` with HIV-1(IIIB).
Marked response: 0.006

Exam item: Name the value of EC50 reported for `CC(C)OC(=O)c1cc(NC(=S)c2ccccc2N)ccc1Cl` when tested on HIV-1(IIIB).
Marked response: 0.5

Exam item: Give EC50 for `Cn1ccc(C(=S)Nc2ccc(Cl)c(C=NOC(C)(C)C)c2)c1` tested on HIV-1(IIIB).
Marked response: 0.029

Exam item: Report value only: EC50, HIV-1(IIIB), `Cc1occc1C(=S)Nc1ccc(Cl)c(C=NOC2CCCC2)c1`
Marked response: 0.023

Exam item: GET EC50 where system = HIV-1(IIIB) and item = `C=CCOc1cc(NC(=S)c2sccc2C)ccc1C#N`
Marked response: 0.045

Exam item: Tell me EC50 of `CC(C)=CCOc1cc(NC(=O)c2ccoc2C)ccc1Cl` when tested on HIV-1(IIIB).
Marked response: 0.015

Exam item: Consider the compound `Cc1sccc1C(=O)Nc1ccc(Cl)c(C(=O)OC(C(C)C)C(C)C)c1` tested on HIV-1(IIIB); state its EC50.
Marked response: 0.16

Exam item: Enter measured EC50, system HIV-1(IIIB), for the compound shown: `C=CC(C)(C)OC(=O)c1cc(NC(=S)c2ccoc2C)ccc1Cl`
Marked response: 0.04

Exam item: Answer briefly: EC50 recorded on HIV-1(IIIB) for `Cc1occc1C(=S)Nc1ccc(Cl)c(SCC(=O)OC(C)(C)C)c1`
Marked response: 0.22

Exam item: Param request: EC50 | system HIV-1(IIIB) | item `C=C(Cl)COc1cc(NC(=S)c2ccsc2C)ccc1C#N`
Marked response: 0.03

Exam item: Would you please give the reported EC50 of `Cc1occc1C(=S)Nc1ccc(Cl)c(C(=O)OCC(F)(F)F)c1` with HIV-1(IIIB)?
Marked response: 0.007

Exam item: Retrieve EC50 on HIV-1(IIIB); query `CC1=C(C(=O)Nc2ccc(Cl)c(C(=O)OC(C(C)C)C(C)C)c2)SCCO1`
Marked response: 0.08
